Entries annotated with measured inhibition
Molecular target: Adenosine receptor A1 (Homo sapiens)
Assay: Displacement of [3H]DPCPX from human adenosine A1 receptor extracted from CHO cell membrane assessed as inhibition of [3H]DPCPX binding at 10 uM incubated for 60 mins by microplate beta scintillation counter relative to control
Assay type: cell membranes
Field: numeric (%). Do not append units.

1) CCNc1nc(Cl)nc2c1ncn2[C@@H]1[Se]C[C@@H](O)[C@H]1O | 31
2) O[C@@H]1[C@H](O)C[Se][C@H]1n1cnc2c(NC3CC3)nc(Cl)nc21 | 26

Input `O[C@@H]1[C@H](O)C[Se][C@H]1n1cnc2c(NC3CC3)ncnc21` . Output inhibition: 20

Input `O[C@@H]1[C@H](O)C[Se][C@H]1n1cnc2c(NCc3cccc(Br)c3)ncnc21` . Output inhibition: 39

---

Molecular target: Adenosine receptor A3 (Homo sapiens)
Test: Displacement of [125I]iodo-AB-MECA from human adenosine A3 receptor expressed in CHO cells assessed as inhibition constant
Assay type: cell-based
measurement name: pKi
Keep it numeric: pKi is minus log10 of the concentration in mol/L.

Input CNC(=O)C1S[C@@H](n2cnc3c(Nc4cccc(I)c4)nc(Cl)nc32)[C@H](O)[C@@H]1O (stereo partly specified) . Output pKi: 9.42

---

Target: Adenosine receptor A3 (Homo sapiens)
Sequence (P0DMS8 whole entry): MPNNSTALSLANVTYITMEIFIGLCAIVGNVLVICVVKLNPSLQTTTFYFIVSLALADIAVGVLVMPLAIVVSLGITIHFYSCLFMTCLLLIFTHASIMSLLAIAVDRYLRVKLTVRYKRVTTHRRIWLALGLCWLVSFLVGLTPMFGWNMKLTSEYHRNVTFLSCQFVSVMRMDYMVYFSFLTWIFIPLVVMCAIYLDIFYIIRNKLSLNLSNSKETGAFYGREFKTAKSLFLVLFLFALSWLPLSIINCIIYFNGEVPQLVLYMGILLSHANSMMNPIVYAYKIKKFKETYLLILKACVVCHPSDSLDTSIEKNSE
Assay: Displacement of [3H]NECA from human adenosine A3 receptor extracted from human HeLa cell membrane assessed as inhibition constant incubated for 180 mins by microplate scintillation counter
Type: cell membranes
Hi! Could you tag entries with Ki below 40 nM as criterion met, and those at or above as criterion not met? Much appreciated.

Recorded results for 3 compounds are shown here.
1. O[C@@H]1[C@H](O)C[Se][C@H]1n1cnc2c(NC3CC3)ncnc21 | criterion met
2. O[C@@H]1[C@H](O)C[Se][C@H]1n1cnc2c(NC3CCCC3)nc(Cl)nc21 | criterion met
3. O[C@@H]1[C@H](O)C[Se][C@H]1n1cnc2c(NCc3cccc(I)c3)nc(Cl)nc21 | criterion not met

Lab note: confirm whether the reported Ki for this compound is below 40 nM, equality not counting. compound: `CCNc1nc(Cl)nc2c1ncn2[C@@H]1[Se]C[C@@H](O)[C@H]1O`
criterion met

Lab note: confirm whether the reported Ki for this compound is below 40 nM, equality not counting. compound: `O[C@@H]1[C@H](O)C[Se][C@H]1n1cnc2c(NCc3cccc(Br)c3)nc(Cl)nc21`
criterion met

Lab note: confirm whether the reported Ki for this compound is below 40 nM, equality not counting. compound: `O[C@@H]1[C@H](O)C[Se][C@H]1n1cnc2c(NCc3cccc(Br)c3)ncnc21`
criterion met

Lab note: confirm whether the reported Ki for this compound is below 40 nM, equality not counting. compound: `O[C@@H]1[C@H](O)C[Se][C@H]1n1cnc2c(NC3CC3)nc(Cl)nc21`
criterion met

Lab note: confirm whether the reported Ki for this compound is below 40 nM, equality not counting. compound: `CNc1nc(Cl)nc2c1ncn2[C@@H]1[Se]C[C@@H](O)[C@H]1O`
criterion met

Lab note: confirm whether the reported Ki for this compound is below 40 nM, equality not counting. compound: `CNc1ncnc2c1ncn2[C@@H]1[Se]C[C@@H](O)[C@H]1O`
criterion met

Lab note: confirm whether the reported Ki for this compound is below 40 nM, equality not counting. compound: `O[C@@H]1[C@H](O)C[Se][C@H]1n1cnc2c(NC3CCCC3)ncnc21`
criterion met

Lab note: confirm whether the reported Ki for this compound is below 40 nM, equality not counting. compound: `CCNc1ncnc2c1ncn2[C@@H]1[Se]C[C@@H](O)[C@H]1O`
criterion met

Lab note: confirm whether the reported Ki for this compound is below 40 nM, equality not counting. compound: `Nc1ncnc2c1ncn2[C@@H]1[Se]C[C@@H](O)[C@H]1O`
criterion not met

Lab note: confirm whether the reported Ki for this compound is below 40 nM, equality not counting. compound: `O[C@@H]1[C@H](O)C[Se][C@H]1n1cnc2c(NCc3cccc(I)c3)ncnc21`
criterion not met

Lab note: confirm whether the reported Ki for this compound is below 40 nM, equality not counting. compound: `O[C@@H]1[C@H](O)C[Se][C@H]1n1cnc2c(NCc3cccc(F)c3)ncnc21`
criterion not met

Lab note: confirm whether the reported Ki for this compound is below 40 nM, equality not counting. compound: `O[C@@H]1[C@H](O)C[Se][C@H]1n1cnc2c(NCc3cccc(F)c3)nc(Cl)nc21`
criterion not met

Lab note: confirm whether the reported Ki for this compound is below 40 nM, equality not counting. compound: `Nc1nc(Cl)nc2c1ncn2[C@@H]1[Se]C[C@@H](O)[C@H]1O`
criterion not met

Lab note: confirm whether the reported Ki for this compound is below 40 nM, equality not counting. compound: `O[C@@H]1[C@H](O)C[Se][C@H]1n1cnc2c(NCc3cccc(Cl)c3)ncnc21`
criterion met

Lab note: confirm whether the reported Ki for this compound is below 40 nM, equality not counting. compound: `O[C@@H]1[C@H](O)C[Se][C@H]1n1cnc2c(NCc3cccc(Cl)c3)nc(Cl)nc21`
criterion met
